biological target: 3-hydroxy-3-methylglutaryl-coenzyme A reductase (Homo sapiens, UniProt P04035); assay: Tested for its inhibitory activity against HMG-CoA reductase transcription in HepG2 cells
quantity_kind: IC50 (µM)
A number alone suffices; assume µM.

CC(C)(O)CCCCc1cccc(/C=C/[C@]2(C)CC[C@@H](O)CC2)c1 = 10

Exercise: Query (compound): C[C@H](CCCC(C)(C)O)[C@H]1CC[C@H]2[C@@H]3CC=C4C[C@@H](O)CC[C@]4(C)[C@H]3CC[C@]12C ; field requested: IC50
Key: 0.3

###

Biological target: UniProt P04035
Sequence (whole entry): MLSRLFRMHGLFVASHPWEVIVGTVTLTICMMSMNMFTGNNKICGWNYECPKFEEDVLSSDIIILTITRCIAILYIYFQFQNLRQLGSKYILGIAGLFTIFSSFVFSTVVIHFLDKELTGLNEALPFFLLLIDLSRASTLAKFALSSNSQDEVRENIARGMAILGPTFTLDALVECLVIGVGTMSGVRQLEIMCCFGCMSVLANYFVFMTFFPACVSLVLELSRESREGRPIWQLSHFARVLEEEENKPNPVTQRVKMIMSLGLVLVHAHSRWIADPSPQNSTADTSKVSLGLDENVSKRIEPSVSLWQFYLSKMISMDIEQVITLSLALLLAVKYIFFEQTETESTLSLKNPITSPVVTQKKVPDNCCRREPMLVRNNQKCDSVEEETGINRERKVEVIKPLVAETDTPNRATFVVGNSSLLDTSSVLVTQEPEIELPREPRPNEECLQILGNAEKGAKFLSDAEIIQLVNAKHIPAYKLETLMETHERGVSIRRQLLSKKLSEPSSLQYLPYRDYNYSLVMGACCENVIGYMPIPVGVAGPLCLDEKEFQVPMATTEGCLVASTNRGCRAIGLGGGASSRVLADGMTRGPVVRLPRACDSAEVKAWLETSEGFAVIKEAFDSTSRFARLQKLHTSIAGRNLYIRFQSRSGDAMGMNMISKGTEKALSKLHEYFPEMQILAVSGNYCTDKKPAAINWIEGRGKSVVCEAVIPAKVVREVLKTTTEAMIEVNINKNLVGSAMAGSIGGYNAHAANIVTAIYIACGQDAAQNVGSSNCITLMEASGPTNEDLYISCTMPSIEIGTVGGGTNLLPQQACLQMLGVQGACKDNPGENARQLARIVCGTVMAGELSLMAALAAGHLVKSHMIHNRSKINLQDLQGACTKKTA
Test: Tested for the percent inhibition against HMG-CoA reductase transcription in HepG2 cells
Assay type: cell-based
Parameters: concentration or dose not given beside the values
Settings: concentration not given here
quantity_kind: inhibition
A complete answer gives the number and then names the unit.

Worked examples follow.
CC(C)(O)CCCCc1ccc(CC[C@]2(C)CC[C@@H](O)CC2)cc1 = 0%
CC(C)(O)CCCC[C@H]1CC[C@@H](/C=C/[C@]2(C)CC[C@@H](O)CC2)C1 (stereo in doubt; 28) = 0%
CC(C)(O)CCCC[C@H]1CC[C@@H](CC[C@]2(C)CC[C@@H](O)CC2)C1 = 0%

Exercise: Quick one: inhibition for CC(C)(O)CCCCc1cccc(/C=C/[C@]2(C)CC[C@@H](O)CC2)c1 ?
Key: 46.3%

Exercise: Would you mind doing CC(C)CCCC[C@@H]1C[C@H](/C=C/[C@]2(C)CC[C@@H](O)CC2)[C@@H](O)[C@H]1O (stereo in doubt; 37) as well?
Key: 0%

Exercise: Same read-out for CC(C)(O)CCCCc1ccc(/C=C/[C@]2(C)CC[C@@H](O)CC2)cc1 ?
Key: 0%
